Reported glycan array binding signal (z-score) values for the following binders.
- test.target: Gal(b1-4)GlcNAc(b1-2)Man(a1-3)[Gal(b1-4)GlcNAc(b1-2)Man(a1-6)]Man(b1-4)GlcNAc(b1-4)[Fuc(a1-6)]GlcNAc
- protocol.text: glycan array binding signal (z-score within array); higher = stronger binding
- experimental.parameters: glycan notation: IUPAC condensed, linker removed
Only a selection was taken, and the strongest signals are over-represented in it overall.
Would you mind answering with just the numeric figure?

binder: Pbx2CASH domain (Cryptococcus neoformans) (protein) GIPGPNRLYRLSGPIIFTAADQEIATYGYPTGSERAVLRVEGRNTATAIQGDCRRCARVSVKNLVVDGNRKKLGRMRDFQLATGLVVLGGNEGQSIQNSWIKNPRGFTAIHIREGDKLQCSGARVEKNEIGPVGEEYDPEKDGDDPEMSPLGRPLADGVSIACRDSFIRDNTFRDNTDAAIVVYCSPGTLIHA
glycan array binding signal (z-score): -0.487

State the recorded glycan array binding signal (z-score) for this entry: PEB1 (Campylobacter jejuni), Q0P9X8 (protein) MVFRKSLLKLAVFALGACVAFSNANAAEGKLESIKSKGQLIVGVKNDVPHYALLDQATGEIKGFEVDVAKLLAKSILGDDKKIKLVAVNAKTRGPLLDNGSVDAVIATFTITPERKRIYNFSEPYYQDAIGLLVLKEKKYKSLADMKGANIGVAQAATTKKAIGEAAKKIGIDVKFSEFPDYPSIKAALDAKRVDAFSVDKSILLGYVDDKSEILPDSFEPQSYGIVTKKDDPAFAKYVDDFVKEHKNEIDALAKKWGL
0.818

Returns the measured glycan array binding signal (z-score) for the input binder. Input: CBM13 2a (Mycobacterium tuberculosum), P64849 (protein) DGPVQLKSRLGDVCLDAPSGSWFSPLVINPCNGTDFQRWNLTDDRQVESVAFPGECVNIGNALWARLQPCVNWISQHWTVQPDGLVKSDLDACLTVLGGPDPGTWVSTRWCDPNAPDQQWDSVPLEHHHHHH
0.207
